TARGET_OR_SYSTEM: human capsaicin receptor (Homo sapiens, UniProt Q8NER1)
Construct: pBK-CMV expression construct encoding the full length human capsaicin receptor; expressed in transfected cells
Sequence (Q8NER1 whole entry): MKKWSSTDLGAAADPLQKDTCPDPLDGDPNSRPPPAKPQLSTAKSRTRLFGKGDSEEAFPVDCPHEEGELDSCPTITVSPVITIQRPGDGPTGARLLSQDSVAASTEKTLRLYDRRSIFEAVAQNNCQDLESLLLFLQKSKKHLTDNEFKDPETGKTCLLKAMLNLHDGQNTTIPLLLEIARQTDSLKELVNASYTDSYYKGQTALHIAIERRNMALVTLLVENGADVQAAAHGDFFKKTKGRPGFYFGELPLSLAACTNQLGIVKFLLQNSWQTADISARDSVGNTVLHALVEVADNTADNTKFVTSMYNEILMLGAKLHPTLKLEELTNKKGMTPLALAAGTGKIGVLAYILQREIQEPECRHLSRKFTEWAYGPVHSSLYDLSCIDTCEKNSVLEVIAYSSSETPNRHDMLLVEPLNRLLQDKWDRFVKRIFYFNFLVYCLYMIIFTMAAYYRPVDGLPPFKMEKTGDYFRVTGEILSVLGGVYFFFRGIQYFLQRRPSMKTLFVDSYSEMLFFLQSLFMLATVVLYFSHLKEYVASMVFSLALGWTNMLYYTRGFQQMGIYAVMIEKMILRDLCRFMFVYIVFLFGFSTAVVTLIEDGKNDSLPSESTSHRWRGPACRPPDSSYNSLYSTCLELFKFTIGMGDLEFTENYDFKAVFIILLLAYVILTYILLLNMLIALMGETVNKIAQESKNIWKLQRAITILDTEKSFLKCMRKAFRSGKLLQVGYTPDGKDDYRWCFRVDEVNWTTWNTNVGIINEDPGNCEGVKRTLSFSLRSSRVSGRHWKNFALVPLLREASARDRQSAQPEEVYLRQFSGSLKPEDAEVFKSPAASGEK
ASSAY_METHOD_TEXT: Calcium mobilization assay, determination of antagonist activity (Example 6)
Type: cell-based
CONDITION_DESCRIPTION: cells expressing human capsaicin receptor, capsaicin-induced fluorescence response; read-out: IC50 determined as described in Example 6
Entries annotated with measured IC50

# MOLECULE, IC50
measured = [
    ("C[C@H](Cc1nc2c(ncn2C)c(=O)n1-c1ccc(Cl)cc1)C(F)(F)F", "≤ 100 nM"),
]

We now examine a further molecule.
IC50 for CCn1cnc2c(=O)n(-c3ccc(Cl)nc3)c(CC(C)C(F)(F)F)nc21 (centres unmarked) ?
≤ 100 nM
